# assayed_system: hNav1.7 (Homo sapiens (Human))
# Sequence (Q15858 whole entry, looked up): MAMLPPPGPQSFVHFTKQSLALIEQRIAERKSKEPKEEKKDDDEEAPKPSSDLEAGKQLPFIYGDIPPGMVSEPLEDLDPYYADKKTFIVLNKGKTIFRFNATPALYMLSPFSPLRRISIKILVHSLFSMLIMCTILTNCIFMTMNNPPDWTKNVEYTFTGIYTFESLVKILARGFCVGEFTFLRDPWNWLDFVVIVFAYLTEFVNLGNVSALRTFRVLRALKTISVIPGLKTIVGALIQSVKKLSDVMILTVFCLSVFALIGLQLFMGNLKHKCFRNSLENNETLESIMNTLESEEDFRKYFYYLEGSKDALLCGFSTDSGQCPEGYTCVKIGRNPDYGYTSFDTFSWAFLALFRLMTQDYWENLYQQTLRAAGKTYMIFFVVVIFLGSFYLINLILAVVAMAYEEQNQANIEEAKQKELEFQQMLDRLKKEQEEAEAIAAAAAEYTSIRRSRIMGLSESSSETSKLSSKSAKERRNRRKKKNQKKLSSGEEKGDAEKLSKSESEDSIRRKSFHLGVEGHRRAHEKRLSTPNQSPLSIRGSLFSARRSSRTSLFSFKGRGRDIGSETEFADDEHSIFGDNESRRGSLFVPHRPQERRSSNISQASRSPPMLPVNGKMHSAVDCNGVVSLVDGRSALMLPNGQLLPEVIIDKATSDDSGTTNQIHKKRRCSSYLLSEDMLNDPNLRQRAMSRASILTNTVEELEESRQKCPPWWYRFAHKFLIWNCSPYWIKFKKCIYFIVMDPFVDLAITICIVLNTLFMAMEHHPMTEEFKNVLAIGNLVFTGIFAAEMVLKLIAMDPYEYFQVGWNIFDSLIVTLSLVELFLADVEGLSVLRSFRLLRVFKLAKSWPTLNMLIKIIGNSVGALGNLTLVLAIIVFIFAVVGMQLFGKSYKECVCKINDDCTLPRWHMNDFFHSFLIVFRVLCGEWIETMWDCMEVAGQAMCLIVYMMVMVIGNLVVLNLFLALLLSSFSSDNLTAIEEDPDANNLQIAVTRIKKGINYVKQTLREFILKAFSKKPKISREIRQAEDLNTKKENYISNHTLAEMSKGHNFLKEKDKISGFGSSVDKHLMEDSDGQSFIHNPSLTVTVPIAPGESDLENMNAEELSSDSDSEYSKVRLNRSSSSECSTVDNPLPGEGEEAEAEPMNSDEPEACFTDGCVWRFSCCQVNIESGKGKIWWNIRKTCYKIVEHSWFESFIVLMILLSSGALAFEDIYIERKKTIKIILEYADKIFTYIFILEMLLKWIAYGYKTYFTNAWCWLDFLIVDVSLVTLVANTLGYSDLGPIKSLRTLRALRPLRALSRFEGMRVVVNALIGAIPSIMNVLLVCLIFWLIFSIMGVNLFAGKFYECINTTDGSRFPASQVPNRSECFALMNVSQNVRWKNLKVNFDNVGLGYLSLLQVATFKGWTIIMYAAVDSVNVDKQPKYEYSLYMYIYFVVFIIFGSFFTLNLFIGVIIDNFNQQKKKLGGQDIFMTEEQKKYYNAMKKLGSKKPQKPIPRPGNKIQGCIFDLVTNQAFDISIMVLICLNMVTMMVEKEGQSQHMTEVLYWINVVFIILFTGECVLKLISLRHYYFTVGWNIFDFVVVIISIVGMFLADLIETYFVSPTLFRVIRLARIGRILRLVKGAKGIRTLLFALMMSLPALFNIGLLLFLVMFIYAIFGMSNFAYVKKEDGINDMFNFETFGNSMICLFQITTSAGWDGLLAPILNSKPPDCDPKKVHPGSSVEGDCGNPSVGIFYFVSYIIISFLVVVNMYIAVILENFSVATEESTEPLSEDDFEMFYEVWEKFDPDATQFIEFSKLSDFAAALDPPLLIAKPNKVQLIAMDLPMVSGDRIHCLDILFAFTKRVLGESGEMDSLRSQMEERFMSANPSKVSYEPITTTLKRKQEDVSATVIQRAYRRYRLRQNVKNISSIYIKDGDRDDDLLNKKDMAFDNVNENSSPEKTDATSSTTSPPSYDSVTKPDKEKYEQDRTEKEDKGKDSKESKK
# Sequence (Q07699 whole entry partner, looked up): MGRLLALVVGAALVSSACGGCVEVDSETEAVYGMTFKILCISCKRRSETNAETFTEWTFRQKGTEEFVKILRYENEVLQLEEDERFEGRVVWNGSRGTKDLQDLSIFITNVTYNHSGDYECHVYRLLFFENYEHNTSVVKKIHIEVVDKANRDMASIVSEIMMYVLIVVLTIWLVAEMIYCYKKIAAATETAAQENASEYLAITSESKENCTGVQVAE
# procedure_details: Tritiated compound binding to membranes from cells expressing hNav1.7 and the β1 subunit, competitive binding (LBA, Ex. 243A)
# settings: 100 pM [3H]compound, 18 h, room temperature; read-out: Nav1.7 LBA (Ex. 243A) IC50
pIC50: −log10 of the molar value. Structures can show the parent of a compound that is named as a salt.
pIC50: recorded values

molecule | assayed_system | pIC50
CCN[C@H]1CCCC[C@@H]1Nc1cc(F)c(S(=O)(=O)Nc2ccncn2)cc1C1CC1 [Example 100] | hNav1.7 (Homo sapiens (Human)) | 6.90
CN(C1CNC1)[C@H]1CCCC[C@@H]1Nc1cc(F)c(S(=O)(=O)Nc2nccs2)cc1C1CC1 [Example 57, dihydrochloride] | hNav1.7 (Homo sapiens (Human)) | 8.62
CN(CCO)[C@H]1CCCC[C@@H]1Nc1cc(F)c(S(=O)(=O)Nc2ccncn2)cc1Cl [Example 89, formate] | hNav1.7 (Homo sapiens (Human)) | 7.22
O=S(=O)(Nc1ccncn1)c1cc(Cl)c(N[C@H]2CCCC[C@@H]2N2CCC(O)C2)cc1F (stereo partly shown) [Example 61] | hNav1.7 (Homo sapiens (Human)) | 6.25
CNCCN(C)[C@H]1CCCC[C@@H]1Nc1cc(F)c(S(=O)(=O)Nc2nccs2)cc1Cl [Example 58, formate] | hNav1.7 (Homo sapiens (Human)) | 8.47
CN(C1CNC1)[C@H]1CCCC[C@@H]1Nc1cc(F)c(S(=O)(=O)Nc2nccs2)cc1Cl [Example 39, dihydrochloride] | hNav1.7 (Homo sapiens (Human)) | 8.73
CC(O)CN(C)[C@H]1CCCC[C@@H]1Nc1cc(F)c(S(=O)(=O)Nc2cccc(F)n2)cc1Cl (stereo partly shown) [Example 86] | hNav1.7 (Homo sapiens (Human)) | 7.42
